Numbers sourced from patent US20210401823A1.

Target: GPR84 (Homo sapiens, UniProt Q9NQS5)
Construct: host or cells: CHO-K1 (cAMP Hunter CHO-K1 GPR84 Gi cells)
Sequence (Q9NQS5 whole entry): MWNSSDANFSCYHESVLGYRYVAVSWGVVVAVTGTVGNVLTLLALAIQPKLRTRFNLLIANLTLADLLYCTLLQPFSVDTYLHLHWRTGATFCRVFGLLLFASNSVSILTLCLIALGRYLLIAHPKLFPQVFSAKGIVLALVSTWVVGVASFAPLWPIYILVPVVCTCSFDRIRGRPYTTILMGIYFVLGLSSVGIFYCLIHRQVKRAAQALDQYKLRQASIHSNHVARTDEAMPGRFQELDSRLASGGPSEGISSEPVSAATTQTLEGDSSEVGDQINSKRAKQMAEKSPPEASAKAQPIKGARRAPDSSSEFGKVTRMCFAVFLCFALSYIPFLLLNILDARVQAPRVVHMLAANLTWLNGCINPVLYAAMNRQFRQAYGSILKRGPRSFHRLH
Assay: GPR84 cAMP release assay, test for antagonism of agonist-induced activation (cAMP Hunter CHO-K1 GPR84 Gi cells, TR-FRET)
Assay type: cell-based
Conditions: with 40 × 10^−6 M 2-OH decanoic acid
testReadout: IC50

INSERT INTO results (compound, recordedvalue) VALUES
  ('Cc1ccc(-c2ccc3c(c2)CCn2c-3cc(OCC3COc4ncccc4O3)nc2=O)cn1 (stereo not shown)', '16 nM');

---

Target: GPR84 (Homo sapiens, UniProt Q9NQS5)
Construct: host or cells: CHO-K1 (cAMP Hunter CHO-K1 GPR84 Gi cells)
Experiment: GPR84 cAMP release assay, test for antagonism of agonist-induced activation (cAMP Hunter CHO-K1 GPR84 Gi cells, TR-FRET)
Assay type: cell-based
Details: with embelin 6.00 10^−6 M
pIC50: −log10 of the molar value.
testReadout: pIC50

INSERT INTO results (compound, testsystem, testreadout, recordedvalue) VALUES
  ('Cc1ccc(-c2ccc3c(c2)CCn2c-3cc(OCC3COc4ncccc4O3)nc2=O)cn1 (stereo not shown)', 'GPR84 (Homo sapiens, UniProt Q9NQS5)', 'pIC50', 8.03);
